B1: POU domain, class 2, transcription factor 1, residues 285 to 354; numbered along this chain, P14859 (parent)
chain: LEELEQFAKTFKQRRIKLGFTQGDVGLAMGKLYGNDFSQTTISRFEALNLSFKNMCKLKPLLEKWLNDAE

Variants of: B1
Assay: abundance fitness (aPCA) (normalised: wild type 0, dead -1); higher = more abundant; growth selection in yeast, the domain comes from the species named
Settings: Homo sapiens
Each entry gets 0.0 if its abundance fitness stays under -0.03, and 1.0 if its abundance fitness is -0.03 or above.

Is the recorded value of abundance fitness equal to or greater than -0.03 for this variant? LEELEQFAKTFKQRRIKLGFTQGDVGLAMGKLYGNDFSQTTISRFEALPLSFKNMCKLKPLLEKWLNDAE [N49P]
0.0

And what about the variant LEELEQFAKTFKQRRIKLGFTQGDVGLAMGKLYGNDFSQTHISRFEALNLSFKNMCKLKPLLEKWLNDAE [T41H] ?
0.0

And what about the variant LEELEQFAKTFKQRRIKLGFTQGDVGLAMGKLYGNDFSQTTISRFEALNLSFKNMCKLKPLLEKWLNDYE [A69Y] ?
0.0

And what about the variant LEELEQFAKTFKQRRIKLGFTQGDVGLAMGKLYGNDFSQTTISRFEALNLSFKNMCALKPLLEKWLNDAE [K57A] ?
0.0

And what about the variant LEKLEQFAKTFKQRRIKLGFTQGDVGLAMGKLYGNDFSQTTISRFEALNLSFKNMCKLKPLLEKWLNDAE [E3K] ?
0.0
